Below, each entry is listed alongside its reported IC50.
tested.on: NLRP3 inflammasome (Homo sapiens, UniProt Q96P20)
Sequence (Q96P20 whole entry): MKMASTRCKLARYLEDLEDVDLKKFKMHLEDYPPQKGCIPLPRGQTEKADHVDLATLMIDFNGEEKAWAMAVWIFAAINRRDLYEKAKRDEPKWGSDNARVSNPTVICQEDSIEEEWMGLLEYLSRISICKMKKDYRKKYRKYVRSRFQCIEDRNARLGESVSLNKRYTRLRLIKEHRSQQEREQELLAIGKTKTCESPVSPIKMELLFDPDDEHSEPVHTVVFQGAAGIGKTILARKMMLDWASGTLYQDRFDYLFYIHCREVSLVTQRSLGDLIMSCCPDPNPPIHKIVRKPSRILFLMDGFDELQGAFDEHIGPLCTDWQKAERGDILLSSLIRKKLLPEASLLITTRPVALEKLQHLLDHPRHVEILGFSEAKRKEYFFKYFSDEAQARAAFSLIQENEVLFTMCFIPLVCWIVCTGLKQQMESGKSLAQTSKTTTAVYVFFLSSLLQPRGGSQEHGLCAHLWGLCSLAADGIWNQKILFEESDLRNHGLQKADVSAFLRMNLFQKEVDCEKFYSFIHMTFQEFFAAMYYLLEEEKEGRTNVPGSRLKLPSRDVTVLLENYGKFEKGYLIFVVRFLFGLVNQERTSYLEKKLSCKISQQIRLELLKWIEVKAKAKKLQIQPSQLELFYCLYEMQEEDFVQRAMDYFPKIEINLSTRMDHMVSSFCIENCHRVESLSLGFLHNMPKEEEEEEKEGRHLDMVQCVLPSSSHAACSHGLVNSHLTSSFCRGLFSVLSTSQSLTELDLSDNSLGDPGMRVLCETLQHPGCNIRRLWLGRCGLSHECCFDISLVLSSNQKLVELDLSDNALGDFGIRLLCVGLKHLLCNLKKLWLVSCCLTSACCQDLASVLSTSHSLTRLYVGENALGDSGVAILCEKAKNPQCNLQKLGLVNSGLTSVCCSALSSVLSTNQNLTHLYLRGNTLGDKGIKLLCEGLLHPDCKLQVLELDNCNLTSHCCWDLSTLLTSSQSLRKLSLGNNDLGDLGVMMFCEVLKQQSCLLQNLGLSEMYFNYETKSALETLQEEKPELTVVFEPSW
assay: THP-1 ASC-GFP speck assay
Format: cell-based
Design: host or cells: THP-1 ASC-GFP cells, PMA-differentiated, LPS-primed, nigericin-stimulated
measurement.context: THP-1 ASC-GFP cells, PMA differentiated, LPS primed, 10 μM nigericin; read-out: THP1 ASC Speck IC50
API: value field is a number in nM; no unit string.

See these solved cases before continuing.
| compound | tested.on | IC50 [nM] |
| --- | --- | --- |
| CC1CCOc2c(S(N)(=O)=NC(=O)Nc3c4c(cc5c3CCC5)CCC4)cnn2C1 (single isomer, unassigned) [Example 65] | NLRP3 inflammasome (Homo sapiens, UniProt Q96P20) | 340 |
| CNC1COc2c(S(N)(=O)=NC(=O)Nc3c4c(c(F)c5c3CCC5)CCC4)cnn2C1 (single isomer, unassigned) [Example 40] | NLRP3 inflammasome (Homo sapiens, UniProt Q96P20) | 8.8 |
| CC1CCc2cc3c(c(NC(=O)N=S(N)(=O)c4cnn5c4OCC5)c21)CCC3 (single isomer, unassigned) [Example 145] | NLRP3 inflammasome (Homo sapiens, UniProt Q96P20) | 3800 |
| CC1(C)COc2c(S(N)(=O)=NC(=O)Nc3c4c(cc5c3CC(F)C5)CCC4)cnn2C1 (single isomer, unassigned) [Example 156] | NLRP3 inflammasome (Homo sapiens, UniProt Q96P20) | 13 |
| CC1CCc2cc3c(c(NC(=O)N=S(N)(=O)c4cnn5c4OCC5)c21)CCC3 (single isomer, unassigned) [Example 144] | NLRP3 inflammasome (Homo sapiens, UniProt Q96P20) | 56 |
| COc1cc(C(C)C)c(NC(=O)N=S(N)(=O)c2cnn3c2OC[C@@H](N2CC(OC)C2)C3)c(C(C)C)n1 (single isomer, unassigned) | NLRP3 inflammasome (Homo sapiens, UniProt Q96P20) | 400 |

Reported IC50, compound COC1COc2c(S(N)(=O)=NC(=O)Nc3c4c(c(F)c5c3CCC5)CCC4)cnn2C1 (single isomer, unassigned) [Example 32] : ____
45

And then NS(=O)(=NC(=O)Nc1c2c(cc3c1CC3)CCC2)c1cnn2c1OCCC2 (single isomer, unassigned) [Example 141] , what is it?
1600

###

tested.on: UniProt:Q96P20
assay: NLRP3 inflammasome activation assay in PBMCs, IL-1β release (ELISA / HTRF)
Format: cell-based
Design: were freshly isolated from human peripheral blood from healthy donors; StemCells Technologies; host or cells: primary human PBMCs, LPS-primed, nigericin-stimulated
measurement.context: LPS primed, 10 μM nigericin, read-out: PBMC IL-1β IC50
experimental.endpoint: IC50

Recorded IC50, per entry:
| compound | IC50 |
| --- | --- |
| N#CNS(=O)(=NC(=O)Nc1c2c(cc3c1CCC3)CCC2)c1cnn2c1OCCC2 (single isomer, unassigned) [Example 68] | 0.38 µM |
| CNS(=O)(=NC(=O)Nc1c2c(cc3c1CCC3)CCC2)c1cnn2c1OCCC2 (racemic) [Example 9] | > 10 µM |
| CC1CCOc2c(S(N)(=O)=NC(=O)Nc3c4c(cc5c3CCC5)CCC4)cnn2C1 (single isomer, unassigned) [Example 66] | > 20 µM |
| CNC1COc2c(S(N)(=O)=NC(=O)Nc3c(C(C)C)cc(F)cc3C(C)C)cnn2C1 (single isomer, unassigned) [Example 28] | > 10 µM |

Now let's try a different one.
Need IC50, item CNC1COc2c(S(N)(=O)=NC(=O)Nc3c(C(C)C)cc(OC)nc3C(C)C)cnn2C1 (single isomer, unassigned) [Example 51]
> 10 µM
